target: Gal(b1-3)GalNAc(b1-3)Gal; assay: glycan array binding signal (z-score within array); higher = stronger binding; conditions: glycan notation: IUPAC condensed, linker removed
The sample as a whole holds a higher share of the strongest signals than the screen did.
recordedEndpoint: glycan array binding signal (z-score)
Numbers only.

Example entries begin here.
AFL6 (Aspergillus fumigatus), Q4WKJ1 (protein) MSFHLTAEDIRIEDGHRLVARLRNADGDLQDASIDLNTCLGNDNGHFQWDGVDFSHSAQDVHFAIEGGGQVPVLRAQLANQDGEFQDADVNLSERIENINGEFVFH: -0.263
CFEM-CGl (Candida glabrata), Q6FRS0 (protein) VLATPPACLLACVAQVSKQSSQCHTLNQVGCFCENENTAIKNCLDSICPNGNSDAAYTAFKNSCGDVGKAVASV: 6.73
Epa8 (Candida glabrata) (protein) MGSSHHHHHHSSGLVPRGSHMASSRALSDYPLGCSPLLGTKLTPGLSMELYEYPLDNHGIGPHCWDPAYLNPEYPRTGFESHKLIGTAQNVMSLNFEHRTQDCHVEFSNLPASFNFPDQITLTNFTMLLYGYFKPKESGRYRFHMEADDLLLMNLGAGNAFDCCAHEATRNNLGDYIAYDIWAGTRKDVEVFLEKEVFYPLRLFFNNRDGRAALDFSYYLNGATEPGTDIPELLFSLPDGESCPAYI: -0.026

# batch: return glycan array binding signal (z-score) for each of the 8 binders below
1. Mg3lysM (Mycosphaerella graminicola) (protein) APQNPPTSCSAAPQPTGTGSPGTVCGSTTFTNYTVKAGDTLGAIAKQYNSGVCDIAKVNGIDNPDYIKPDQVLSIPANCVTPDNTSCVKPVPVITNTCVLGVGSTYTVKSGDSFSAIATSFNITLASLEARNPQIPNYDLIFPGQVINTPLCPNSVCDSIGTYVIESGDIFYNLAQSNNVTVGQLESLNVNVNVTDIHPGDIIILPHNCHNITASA
2. Epa11 (Candida glabrata) (protein) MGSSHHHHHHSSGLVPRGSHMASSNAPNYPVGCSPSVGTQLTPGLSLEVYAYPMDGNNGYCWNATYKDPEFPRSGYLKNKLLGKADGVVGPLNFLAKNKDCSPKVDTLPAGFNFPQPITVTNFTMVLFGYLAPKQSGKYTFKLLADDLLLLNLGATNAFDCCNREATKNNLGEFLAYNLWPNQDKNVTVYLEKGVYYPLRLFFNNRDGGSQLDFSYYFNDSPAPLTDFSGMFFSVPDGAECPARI
3. FimA-N3 (Actinomyces oris) (protein) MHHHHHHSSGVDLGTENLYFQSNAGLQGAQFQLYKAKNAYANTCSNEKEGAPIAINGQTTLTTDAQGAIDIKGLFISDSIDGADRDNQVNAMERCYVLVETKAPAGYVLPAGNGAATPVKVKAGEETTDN
4. SAOUHSC 02783 (Staphylococcus aureus), Q5HD69 (protein) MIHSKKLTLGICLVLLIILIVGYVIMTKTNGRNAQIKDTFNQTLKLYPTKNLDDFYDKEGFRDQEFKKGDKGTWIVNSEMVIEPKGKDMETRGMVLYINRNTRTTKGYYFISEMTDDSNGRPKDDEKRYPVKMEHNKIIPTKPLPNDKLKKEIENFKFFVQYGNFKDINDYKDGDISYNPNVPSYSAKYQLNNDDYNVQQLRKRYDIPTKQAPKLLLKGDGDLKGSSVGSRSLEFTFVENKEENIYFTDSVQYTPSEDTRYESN
5. Epa1to9 (Candida glabrata) (protein) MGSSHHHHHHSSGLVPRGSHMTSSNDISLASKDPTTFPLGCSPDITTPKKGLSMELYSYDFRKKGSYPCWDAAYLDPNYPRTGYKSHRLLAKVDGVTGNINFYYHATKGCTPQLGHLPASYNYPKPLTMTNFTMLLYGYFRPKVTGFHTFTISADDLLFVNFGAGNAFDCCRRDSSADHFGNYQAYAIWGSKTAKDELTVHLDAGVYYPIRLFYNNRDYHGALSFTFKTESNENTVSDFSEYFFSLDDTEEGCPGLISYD
6. FimD (Bordetella pertussis) (protein) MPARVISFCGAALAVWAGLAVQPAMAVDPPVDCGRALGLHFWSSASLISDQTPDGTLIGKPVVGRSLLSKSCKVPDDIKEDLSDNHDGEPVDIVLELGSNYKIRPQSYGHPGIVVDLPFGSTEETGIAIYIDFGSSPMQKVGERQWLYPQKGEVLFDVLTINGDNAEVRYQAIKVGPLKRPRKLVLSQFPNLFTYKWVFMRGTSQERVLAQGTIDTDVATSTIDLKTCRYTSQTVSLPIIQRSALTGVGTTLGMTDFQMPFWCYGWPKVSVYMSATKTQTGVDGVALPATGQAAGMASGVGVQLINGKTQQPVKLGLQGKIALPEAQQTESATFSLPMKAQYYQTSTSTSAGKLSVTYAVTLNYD
7. FimA-N2 (Actinomyces oris) (protein) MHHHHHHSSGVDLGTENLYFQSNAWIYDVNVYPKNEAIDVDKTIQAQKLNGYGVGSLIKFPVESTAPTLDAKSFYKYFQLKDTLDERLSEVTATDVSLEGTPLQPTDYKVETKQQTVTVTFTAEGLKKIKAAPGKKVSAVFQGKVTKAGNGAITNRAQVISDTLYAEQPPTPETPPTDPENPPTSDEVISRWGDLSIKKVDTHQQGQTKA
8. Epa1 (Candida glabrata) (protein) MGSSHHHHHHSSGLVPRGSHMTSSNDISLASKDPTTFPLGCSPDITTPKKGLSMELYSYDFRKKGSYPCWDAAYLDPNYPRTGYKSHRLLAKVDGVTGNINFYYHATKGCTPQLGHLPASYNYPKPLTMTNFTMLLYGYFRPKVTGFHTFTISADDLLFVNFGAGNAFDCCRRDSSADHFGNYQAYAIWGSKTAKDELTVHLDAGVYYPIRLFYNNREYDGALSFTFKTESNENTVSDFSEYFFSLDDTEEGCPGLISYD

Reply:
0.131
-0.185
-0.367
-0.932
3.67
-0.089
-0.678
6.23
